target-desc: recombinant human Galectin-9 (human, UniProt O00182 1-355)
Sequence (O00182 whole entry): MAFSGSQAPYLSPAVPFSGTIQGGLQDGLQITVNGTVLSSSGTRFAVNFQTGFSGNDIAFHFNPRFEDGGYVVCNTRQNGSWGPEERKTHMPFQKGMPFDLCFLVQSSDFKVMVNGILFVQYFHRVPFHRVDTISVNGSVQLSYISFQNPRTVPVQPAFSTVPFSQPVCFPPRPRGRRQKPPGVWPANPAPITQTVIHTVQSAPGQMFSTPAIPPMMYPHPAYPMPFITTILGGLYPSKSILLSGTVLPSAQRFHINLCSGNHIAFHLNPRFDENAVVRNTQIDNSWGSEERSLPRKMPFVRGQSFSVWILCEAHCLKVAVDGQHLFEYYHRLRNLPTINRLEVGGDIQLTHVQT
assay-name: SPR
observation-type: Kd

In plain terms, human 4-1BB.Fc CRD4 mutant (amino acids 119–186) (Fc fusion, UniProt Q07011 119-186, looked up) DCCFGTFNDQKRGICRPWTNCSLDGKSVLVNGTKERDVVCGPSPADLSPGASSVTPPAPAREPGHSPQ has a documented Kd of ~35 nM
